Test system: A2780
Experiment: Calcein AM viability assay, A2780
Format: cell-based
Recorded Conditions: Homo sapiens
Where a name gives a salt, the structure may show the parent alone.
Measured Attribute: IC50

Tell me the measured IC50 of COCCN1CCN(Cc2ccc(-c3n[nH]c4c3C(=O)c3c(NC(=O)NN5CCOCC5)cccc3-4)cc2)CC1 [Compound B16, dihydrochloride] , please. < 10 nM

Tell me the measured IC50 of CC(C)N1CCN(C(=O)COc2ccc(-c3n[nH]c4c3C(=O)c3c(NC(=O)NN5CCOCC5)cccc3-4)cc2)CC1 , please. < 10 nM

###

Can you tell me IC50 for the items I'm about to list?
Where a name gives a salt, the structure may show the parent alone.

Field: IC50 (Cdk5 (Homo sapiens)). Entry: CC(C)N1CCN(C(=O)COc2ccc(-c3n[nH]c4c3C(=O)c3c(NC(=O)NN5CCOCC5)cccc3-4)cc2)CC1 [Compound A37] < 5 nM

Field: IC50 (Cdk5 (Homo sapiens)). Entry: COCCN1CCN(Cc2ccc(-c3n[nH]c4c3C(=O)c3c(NC(=O)NN5CCOCC5)cccc3-4)cc2)CC1 [Compound B16, dihydrochloride] < 5 nM

###

Tested on: A129
Experiment: SRB cytotoxicity, A129 parental cells
Type: cell-based, human
Recorded Conditions: Homo sapiens, 72 h
Structures can show the parent of a compound that is named as a salt.
Measured Attribute: IC50 (nM)
Give just the number in nM; leave the unit off.

Tell me the measured IC50 of COCCN1CCN(Cc2ccc(-c3n[nH]c4c3C(=O)c3c(NC(=O)NN5CCOCC5)cccc3-4)cc2)CC1 [Compound B16, dihydrochloride] , please. 8.7

Tell me the measured IC50 of CC(C)N1CCN(C(=O)COc2ccc(-c3n[nH]c4c3C(=O)c3c(NC(=O)NN5CCOCC5)cccc3-4)cc2)CC1 [Compound A37] , please. 5.7

###

Can you tell me pIC50 for the items I'm about to list?
System Name: Abl (c-Abl) (Homo sapiens)
Construct: purchased Upstate 14-529
Sequence (P00519 whole entry): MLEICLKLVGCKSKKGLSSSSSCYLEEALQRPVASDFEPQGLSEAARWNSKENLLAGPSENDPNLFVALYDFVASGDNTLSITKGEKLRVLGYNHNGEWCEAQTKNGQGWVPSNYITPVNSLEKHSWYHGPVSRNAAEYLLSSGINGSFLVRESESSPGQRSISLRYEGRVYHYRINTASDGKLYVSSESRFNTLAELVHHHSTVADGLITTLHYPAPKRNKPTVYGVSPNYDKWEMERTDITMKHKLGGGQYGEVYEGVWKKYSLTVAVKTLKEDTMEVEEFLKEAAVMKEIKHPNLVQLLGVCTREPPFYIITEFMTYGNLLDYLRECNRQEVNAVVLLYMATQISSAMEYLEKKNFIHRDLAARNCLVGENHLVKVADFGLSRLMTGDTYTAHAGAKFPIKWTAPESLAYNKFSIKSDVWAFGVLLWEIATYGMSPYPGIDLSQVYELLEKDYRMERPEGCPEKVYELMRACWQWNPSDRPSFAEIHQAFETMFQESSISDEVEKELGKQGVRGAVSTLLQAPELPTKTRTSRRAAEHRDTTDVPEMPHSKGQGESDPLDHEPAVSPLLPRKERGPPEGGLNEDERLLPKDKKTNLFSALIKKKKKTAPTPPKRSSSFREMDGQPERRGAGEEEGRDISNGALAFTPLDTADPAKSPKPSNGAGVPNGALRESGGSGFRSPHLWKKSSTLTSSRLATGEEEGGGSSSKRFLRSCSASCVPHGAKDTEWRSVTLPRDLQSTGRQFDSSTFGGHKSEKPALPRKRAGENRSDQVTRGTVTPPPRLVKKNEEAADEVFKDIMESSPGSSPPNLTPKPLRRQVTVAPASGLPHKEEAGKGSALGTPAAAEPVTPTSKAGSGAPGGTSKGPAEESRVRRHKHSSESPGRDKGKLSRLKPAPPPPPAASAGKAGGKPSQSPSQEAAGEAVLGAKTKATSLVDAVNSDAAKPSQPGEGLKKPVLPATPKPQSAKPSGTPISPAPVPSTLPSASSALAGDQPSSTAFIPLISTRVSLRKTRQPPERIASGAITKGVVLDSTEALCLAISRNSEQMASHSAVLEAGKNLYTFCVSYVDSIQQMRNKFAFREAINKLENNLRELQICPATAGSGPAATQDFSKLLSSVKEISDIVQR
Experiment: Abl kinase assay
Type: biochemical
Recorded Conditions: Table II; read-out: ABL1 Inhibition (IC50)
pIC50: −log10 of the molar value. Structures can show the parent of a compound that is named as a salt.

Tell me the measured pIC50 of CC(C)N1CCN(C(=O)COc2ccc(-c3n[nH]c4c3C(=O)c3c(NC(=O)NN5CCOCC5)cccc3-4)cc2)CC1 , please. > 7.30

Tell me the measured pIC50 of COCCN1CCN(Cc2ccc(-c3n[nH]c4c3C(=O)c3c(NC(=O)NN5CCOCC5)cccc3-4)cc2)CC1 [Compound B16, dihydrochloride] , please. > 7.00

###

Can you tell me IC50 for the items I'm about to list?
System Name: JNK1α1 (Homo sapiens, UniProt P45983)
Construct: purchased Upstate 14-327
Sequence (P45983 1-384 isoform P45983-2, species assumed): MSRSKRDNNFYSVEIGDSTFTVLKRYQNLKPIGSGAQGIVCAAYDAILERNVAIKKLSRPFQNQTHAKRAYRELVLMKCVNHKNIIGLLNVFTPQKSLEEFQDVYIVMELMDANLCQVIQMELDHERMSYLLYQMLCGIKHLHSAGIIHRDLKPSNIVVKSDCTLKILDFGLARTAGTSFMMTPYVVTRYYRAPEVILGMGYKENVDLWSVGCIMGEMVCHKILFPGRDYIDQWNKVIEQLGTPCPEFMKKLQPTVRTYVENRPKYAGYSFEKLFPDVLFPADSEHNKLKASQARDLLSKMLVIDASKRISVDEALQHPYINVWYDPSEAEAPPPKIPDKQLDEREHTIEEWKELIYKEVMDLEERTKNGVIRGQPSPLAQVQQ
Experiment: JNK1α1 kinase assay
Type: biochemical
Recorded Conditions: read-out: MAPK8 Inhibition (IC50)
Where a name gives a salt, the structure may show the parent alone.

Tell me the measured IC50 of COCCN1CCN(Cc2ccc(-c3n[nH]c4c3C(=O)c3c(NC(=O)NN5CCOCC5)cccc3-4)cc2)CC1 [Compound B16, dihydrochloride] , please. < 100 nM

Tell me the measured IC50 of CC(C)N1CCN(C(=O)COc2ccc(-c3n[nH]c4c3C(=O)c3c(NC(=O)NN5CCOCC5)cccc3-4)cc2)CC1 , please. < 50 nM
